target: RSV F protein of subtype B strain 18537, on virus (respiratory syncytial virus subtype B …, UniProt P13843 26-574); test: cell-based or functional assay
Sequence (P13843 26-574): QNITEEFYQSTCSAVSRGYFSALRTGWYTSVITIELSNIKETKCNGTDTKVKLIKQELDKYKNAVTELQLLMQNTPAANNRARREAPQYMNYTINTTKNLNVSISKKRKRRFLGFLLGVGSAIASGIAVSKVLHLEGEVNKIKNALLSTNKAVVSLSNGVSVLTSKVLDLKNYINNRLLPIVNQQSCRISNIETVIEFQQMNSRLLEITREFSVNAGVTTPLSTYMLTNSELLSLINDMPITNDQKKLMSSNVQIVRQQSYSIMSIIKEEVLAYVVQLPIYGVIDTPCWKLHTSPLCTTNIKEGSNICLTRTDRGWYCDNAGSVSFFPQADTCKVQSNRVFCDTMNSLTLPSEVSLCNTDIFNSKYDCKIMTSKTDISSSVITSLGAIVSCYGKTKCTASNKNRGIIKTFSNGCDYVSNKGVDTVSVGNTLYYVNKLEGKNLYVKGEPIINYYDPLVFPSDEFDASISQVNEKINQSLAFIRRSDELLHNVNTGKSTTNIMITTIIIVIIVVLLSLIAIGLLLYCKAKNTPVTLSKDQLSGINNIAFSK
I would appreciate it if you labelled entries Condition met when Neut IC50 (ug/ml) subtype B is 5 µg/mL or higher, otherwise Condition not met.

- ADI-15664 (antibody, V domains shown) VH: EVQLVESGAEVKKPGSSVKVSCKASGGTFSSYAISWVRQAPGQGLEWMGGTIPIFGTINYAQKFQGRLTINADASTSTAYMELSSLRSEDTAVYFCARDRTTAVRYYAMDVWGQGTTVTVSS VL: EIVLTQSPATLSLSPGERATLSCRASQSVSSYLAWYQQKPGQAPRLLIYDTSNRATDIPARFSGSGSGTDFTLTISSLEPEDFAVYYCQHRANWPPLTFGGGTKVEIK: Condition met
- ADI-15592 (antibody, V domains shown, IgG; also called Antibody Number 159) VH: EVQLVESGGALVKPGGSLRLSCVGTGLTFTTAYMSWARQAPGKGLEWVGRIKSKSDGGTTEYPTPVKGRFTISRDESKNTLYLQMNSLKIEDTAVYYCTTDRGITARPIFDSWGQGTLVTVSS VL: QSVLTQPPSVSGALGRRVTISCTGSSSNIGAGYDVHWYRQLPGTAPKLLIYGNTKRPSGVPDRFSGSKYATSASLAITGLQAEDDADYYCQSYDGGLSGYVFGTGTQLTVL: Condition met
- ADI-15640 (antibody, V domains shown, IgG; also called Antibody Number 204) VH: QVQLVESGPALVKPTQTLTLTCAFSGFSLTTRGMSVSWIRQPPGKALEWLARIDWDDDKYYSTSLKTRLTISKDTSKNQVVLTMSNMDPVDTATYYCARASLYDSGGYYLFFFDYWGQGTLVTVSS VL: DIVMTQSPSSLSASVGDRVTITCRASQSIGSYLNWYQQKPGKVPKLLIYAASNLQGGVPSRFRGSGSGTDFTLTISNLQPEDFASYYCQLSYSSLWTFGQGTKVEIK: Condition not met
- ADI-15559 (antibody, V domains shown, IgG; also called Antibody Number 130) VH: QVQLVQSGAEVKKPGSSVKVSCKASGGSLSTYGIHWVRQAPGQGLEWVGGVMTVYGKTTYGQNFQGRVTIAVDRSTNTAYMELSSLTSDDTGTYYCATDSYYVWTGSYPPPFDLWGQGTLVTVSS VL: EIVLTQTPGTQSLSPGQSATLSCRASHSVGNDYLAWYQQKPGQSPRLLIHGAYRRDSGIPDRFIGSGSGTDFTLTIDSLEPDDCAVYYCQQYGSWPLTFGGGTKVDIK: Condition not met
- ADI-15661 (antibody, V domains shown) VH: EVQLVESGGGVVQPGRSLRLSCEASGFNFHNYDIQWVRQAPGKGLEWVALVLFDGSKKYYPHSVKGRFAISRDNSKKTLFLQMNSLRPEDTAVYYCARAPVTGASYYLDYWGQGTLVTVSS VL: SYVLTQPPSVSVAPGQTARITCGANNIGNKGVHWYQQKPGQAPVLVVYDDDDQPSGIPERFSGSNSGNTATLTISRVEAGDEADYYCQVWDSTSDHLVFGGGTQLTVL: Condition met
- ADI-15649 (antibody, V domains shown, IgG) VH: EVQLVESGGGLVKPGGSLRLSCAAPGFTIRSYTMYWVRQAPGKGLEWVASISSSSSYIHYGDSVKGRFTIARDNAKNSLYLQMNSLRAEDTAVYYCVRDHCTGGSCYLNGMDVWGQGTTVTVSS VL: QPVLTQPPSVSGAPGQRVTISCTGTSSNIGAGYDVHWYQQLPGTAPKLLIYGNNNRPSGVPDRFSGSKSGTSASLAITGLQAEDEADYYCQSYDSSLSGSVFGGGTKLTVL: Condition not met
- ADI-15573 (antibody, V domains shown, IgG; also called Antibody Number 143) VH: QVQLVQSGAEVKKPGASVKISCKTSGYTFTSSVISWVRQAPGQGLEWVGWITGHRSSTNYAQRLQGRVTMTTDTSTSTAYMELRSLRSDDTAVYYCARADGGSGSYYSAWGQGTLVTVSS VL: SYELTQPPSASVAPGKTARISCGGNNIGTKSVHWYQQKPGQAPVLVIYHDSHRPSGIPERFSGSNSGNTATLTISRVEAGDEADYYCQLWDSSSDSHVFGTGTKLTVL: Condition not met

Source listed as patent US20220144922A1.
